Recorded pKi, one value per entry.
- experimental_system: DDR2 (Homo sapiens)
- Construct: purchased Life Technologies
- Sequence (Q16832 22-855): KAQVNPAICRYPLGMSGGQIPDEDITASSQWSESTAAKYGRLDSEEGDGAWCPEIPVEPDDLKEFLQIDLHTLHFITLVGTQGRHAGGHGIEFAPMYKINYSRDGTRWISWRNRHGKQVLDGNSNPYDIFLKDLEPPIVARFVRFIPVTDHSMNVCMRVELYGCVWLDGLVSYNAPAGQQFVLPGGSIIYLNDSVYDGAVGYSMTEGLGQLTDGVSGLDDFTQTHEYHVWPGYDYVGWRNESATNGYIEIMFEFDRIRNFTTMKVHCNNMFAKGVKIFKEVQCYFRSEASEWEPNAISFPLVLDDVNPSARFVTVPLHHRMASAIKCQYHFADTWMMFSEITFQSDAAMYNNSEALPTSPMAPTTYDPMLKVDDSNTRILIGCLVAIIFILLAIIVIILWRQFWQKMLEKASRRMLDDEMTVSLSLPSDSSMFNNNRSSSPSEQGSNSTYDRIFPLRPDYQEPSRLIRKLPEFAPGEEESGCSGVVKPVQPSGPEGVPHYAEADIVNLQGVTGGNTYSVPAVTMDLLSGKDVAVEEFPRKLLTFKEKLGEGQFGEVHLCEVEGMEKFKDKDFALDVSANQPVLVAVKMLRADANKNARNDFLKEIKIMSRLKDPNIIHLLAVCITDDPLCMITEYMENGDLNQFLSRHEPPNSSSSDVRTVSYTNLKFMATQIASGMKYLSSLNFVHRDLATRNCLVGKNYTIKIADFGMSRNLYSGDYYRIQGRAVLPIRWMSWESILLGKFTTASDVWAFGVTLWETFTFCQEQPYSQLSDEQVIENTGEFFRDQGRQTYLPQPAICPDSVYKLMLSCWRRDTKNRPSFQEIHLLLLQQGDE
- protocol_summary: LanthaScreen Europium Kinase Binding assay, DDR2
- particulars: 5 nM DDR2, 10 nM Kinase Tracer 178, 1 h at rt; Ki from IC50 by Cheng-Prusoff; read-out: Ki DDR2
pKi: −log10 of the molar value.

- O=C(Nc1cccc(C(F)(F)F)c1)NC1CC2(C1)CN(C(=O)c1cnn3ccn(CCO)c13)C2: 7.60 to 8.30

Q) Can you look up the measured pKi of `CN(C(=O)Nc1cc(C(F)(F)F)ccn1)C1CC2(C1)CN(C(=O)c1cnn3cc(-c4cnn(C)c4)ccc13)C2` for me?
A) 7.60 to 8.30

Q) // query pKi value for entry `Cc1c(-c2ccc3c(C(=O)N4CC5(CC(N(C)C(=O)Nc6cncc(C(F)(F)F)c6)C5)C4)cnn3c2)cnn1C`
A) 7.60 to 8.30

Q) Data request, read-out pKi, for `O=C(Nc1cccc(C(F)(F)F)c1)NC1CC2(C1)CN(C(=O)c1cnn3ccccc13)C2`
A) > 8.30

Q) // returns reported pKi for input `CN1CCN(c2ccn3ncc(C(=O)N4CC5(CC(NC(=O)Nc6cc(C#N)cc(C(F)(F)F)c6)C5)C4)c3c2)CC1`
A) 7.60 to 8.30

Q) Quick one: pKi for `Cc1nc(NC(=O)N(C)C2CC3(C2)CN(C(=O)c2cnn4ccn(C)c24)C3)cc(C(F)(F)F)n1` ?
A) 7.00 to 7.60

Q) Fill in: pKi of `Cn1ccn2ncc(C(=O)N3CC4(CC(OC(=O)Nc5cc(OC(F)(F)F)ccn5)C4)C3)c12` is ___
A) > 8.30

Where do these numbers come from? They come from patent US20260285855A1.
